- Tested on: E. aerogenes ATCC 13048
- EXPERIMENT_SUMMARY: Antibacterial activity (MIC, broth dilution)
- Assay type: cell-based
- EXPERIMENTAL_PARAMETERS: CLSI
- Experimental: Determination of the Minimal Inhibitory Concentrations (MIC) by dilution was carried out by broth dilution according to CLSI standards.
QUANTITY_MEASURED: Antibacterial activity (MIC) E. aerogenes ATCC 13048

Below: 3 compounds and their reported Antibacterial activity (MIC) E. aerogenes ATCC 13048.
# return recorded Antibacterial activity (MIC) E. aerogenes ATCC 13048 for input Cc1ccc(-c2cc(/C=C/c3ccc(N(C)C)cc3)[o+]c(-c3ccc(C)c(C)c3)c2)cc1C.F[B-](F)(F)F [6jc-59-1]
≥ 64 µg/mL

# return recorded Antibacterial activity (MIC) E. aerogenes ATCC 13048 for input Cc1cc(/C=C/C=C/c2ccc(N(C)C)cc2)cc(C)[o+]1.F[B-](F)(F)F [6jc38]
≥ 64 µg/mL

# return recorded Antibacterial activity (MIC) E. aerogenes ATCC 13048 for input CN(C)c1ccc(/C=C/c2cc(-c3ccc(Cl)cc3)cc(-c3ccc(Cl)cc3)[o+]2)cc1.F[B-](F)(F)F [6jc41-1]
≥ 64 µg/mL

Attention now turns to another entry.
# return recorded Antibacterial activity (MIC) E. aerogenes ATCC 13048 for input Cn1cc(/C=C/c2cc(-c3ccccc3)cc(-c3ccccc3)[o+]2)c2ccccc21.F[B-](F)(F)F [6jc66-1]
≥ 64 µg/mL

====

Below: a set of entries, each annotated with reported CC50% (72 h HeLa cells).
- Test system: HeLa cells
- EXPERIMENT_SUMMARY: Cytotoxicity against mammalian cells (MTS assay)
- Type: cell-based

# return recorded CC50% (72 h HeLa cells) for input "CCc1ccc(-c2cc(/C=C/c3cc4c5c(c3)CCCN5CCC4)[o+]c(-c3ccc(CC)cc3)c2)cc1.F[B-](F)(F)F"
<.78125

Continuing:
# return recorded CC50% (72 h HeLa cells) for input "Cc1ccc(-c2cc(/C=C/c3ccc(N(C)C)cc3)[o+]c(-c3ccc(C)c(C)c3)c2)cc1C.F[B-](F)(F)F"
<.78125

# return recorded CC50% (72 h HeLa cells) for input "C(=C\c1cc(-c2ccccc2)cc(-c2ccccc2)[o+]1)/c1cc2c3c(c1)CCCN3CCC2.F[B-](F)(F)F"
<.78125

# return recorded CC50% (72 h HeLa cells) for input "Cc1ccc(-c2cc(/C=C/C=C/c3ccc(N(C)C)cc3)[o+]c(-c3ccc(C)cc3)c2)cc1.F[B-](F)(F)F"
<.78125

# return recorded CC50% (72 h HeLa cells) for input "CCc1ccc(-c2cc(/C=C/C=C/c3ccc(N(C)C)cc3)[o+]c(-c3ccc(CC)cc3)c2)cc1.F[B-](F)(F)F"
<.78125

# return recorded CC50% (72 h HeLa cells) for input "CN(C)c1ccc(/C=C/c2cc(-c3ccc(C(C)(C)C)cc3)cc(-c3ccc(C(C)(C)C)cc3)[o+]2)cc1.F[B-](F)(F)F"
<.78125

====

- System: E. faecium F118 (VRE)
- EXPERIMENT_SUMMARY: Antibacterial activity (MIC, broth dilution)
- Assay type: cell-based
- EXPERIMENTAL_PARAMETERS: CLSI, in µg/mL
QUANTITY_MEASURED: Antibacterial activity (MIC) E. faecium F118 (VRE)
Form rule: numeric answer, no unit written next to it.

# return recorded Antibacterial activity (MIC) E. faecium F118 (VRE) for input "C(=C\c1cc(-c2ccccc2)cc(-c2ccccc2)[o+]1)/c1cc2c3c(c1)CCCN3CCC2.F[B-](F)(F)F"
4

Continuing:
# return recorded Antibacterial activity (MIC) E. faecium F118 (VRE) for input "CN(C)c1ccc(/C=C/c2cc(-c3ccccc3)cc(-c3ccccc3)[o+]2)cc1.F[B-](F)(F)F"
4

# return recorded Antibacterial activity (MIC) E. faecium F118 (VRE) for input "CCc1ccc(-c2cc(/C=C/c3c[nH]c4ccccc34)[o+]c(-c3ccc(CC)cc3)c2)cc1.F[B-](F)(F)F"
8

# return recorded Antibacterial activity (MIC) E. faecium F118 (VRE) for input "Cc1ccc(-c2cc(/C=C/c3cc4c5c(c3)CCCN5CCC4)[o+]c(-c3ccc(C)cc3)c2)cc1.F[B-](F)(F)F"
4
